Origin of values: the RNAGym collection of RNA variant scans (doi:10.1038/s41586-018-0170-7)

B1: tRNA (parent)
chain: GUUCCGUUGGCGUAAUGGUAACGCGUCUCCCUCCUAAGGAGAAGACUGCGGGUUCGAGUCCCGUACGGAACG

variants of: B1; test: yeast fitness, log relative to wild type (ln ratio); higher = fitter; tRNA-Arg(CCU), competitive growth, 37 C, 1 M NaCl
Returns true if the recorded yeast fitness (ln) is greater than or equal to -0.2, and false otherwise.

Could you tell me if the measured yeast fitness (ln) of A69G C71U reaches -0.2 or more?
true

Could you tell me if the measured yeast fitness (ln) of G1A U2G G6A A43C C66A A69G A70G C71U reaches -0.2 or more?
false

Could you tell me if the measured yeast fitness (ln) of U2C G6A A43C C46U C66A A70U reaches -0.2 or more?
true

Could you tell me if the measured yeast fitness (ln) of U2C G6U C27U A43C C46U A69G A70U reaches -0.2 or more?
true

Could you tell me if the measured yeast fitness (ln) of G1A C46U A69G C71U reaches -0.2 or more?
true

Could you tell me if the measured yeast fitness (ln) of G1A U2G G6U C27U C66A A70G reaches -0.2 or more?
false

Could you tell me if the measured yeast fitness (ln) of U2C C27U A69G A70G C71U reaches -0.2 or more?
true

Could you tell me if the measured yeast fitness (ln) of G1A U2G G6U C27U A69G A70U reaches -0.2 or more?
false

Could you tell me if the measured yeast fitness (ln) of G1A U2G C46U reaches -0.2 or more?
true

Could you tell me if the measured yeast fitness (ln) of G1A G6A C27U A43C C66U A70G reaches -0.2 or more?
false

Could you tell me if the measured yeast fitness (ln) of G1A G6U C27U A43C C46U C66A A70U reaches -0.2 or more?
false

Could you tell me if the measured yeast fitness (ln) of G1A G6A C46U C71U reaches -0.2 or more?
true

Could you tell me if the measured yeast fitness (ln) of U2C G6A C66U A69G A70G reaches -0.2 or more?
true

Could you tell me if the measured yeast fitness (ln) of C27U C46U C66A A70U reaches -0.2 or more?
true

Could you tell me if the measured yeast fitness (ln) of U2G G6U C27U C71U reaches -0.2 or more?
false

Could you tell me if the measured yeast fitness (ln) of G6A A69G A70G reaches -0.2 or more?
true

Could you tell me if the measured yeast fitness (ln) of G1A C27U A43C C66U C71U reaches -0.2 or more?
false

Could you tell me if the measured yeast fitness (ln) of G1A U2G G6U A70G reaches -0.2 or more?
false

Could you tell me if the measured yeast fitness (ln) of U2G G6A A43C C46U C66A A70G C71U reaches -0.2 or more?
true

Could you tell me if the measured yeast fitness (ln) of A43C C66A A69G A70G reaches -0.2 or more?
true

Could you tell me if the measured yeast fitness (ln) of U2C A43C C66A reaches -0.2 or more?
true

Could you tell me if the measured yeast fitness (ln) of G1A G6U A43C C46U A70U reaches -0.2 or more?
false

Could you tell me if the measured yeast fitness (ln) of G6U C27U C66U A70G reaches -0.2 or more?
false

Could you tell me if the measured yeast fitness (ln) of U2G G6A C66U A70G reaches -0.2 or more?
true

Could you tell me if the measured yeast fitness (ln) of G1A C46U C66A A70U C71U reaches -0.2 or more?
true

Could you tell me if the measured yeast fitness (ln) of U2G G6A C27U C46U C66A A70G C71U reaches -0.2 or more?
false

Could you tell me if the measured yeast fitness (ln) of U2G C27U A43C C46U A70G reaches -0.2 or more?
false

Could you tell me if the measured yeast fitness (ln) of U2G G6U C27U A43C C46U A70U reaches -0.2 or more?
true

Could you tell me if the measured yeast fitness (ln) of U2G G6U C27U A43C C66U A69G reaches -0.2 or more?
false

Could you tell me if the measured yeast fitness (ln) of U2C C27U A43C C66U A69G A70G reaches -0.2 or more?
false

Could you tell me if the measured yeast fitness (ln) of U2C G6A C27U A43C C46U A70G C71U reaches -0.2 or more?
true

Could you tell me if the measured yeast fitness (ln) of G1A C27U C66A A69G A70U reaches -0.2 or more?
true

Could you tell me if the measured yeast fitness (ln) of G1A U2G C27U A43C C46U A70G C71U reaches -0.2 or more?
false

Could you tell me if the measured yeast fitness (ln) of U2G G6U C27U A43C A70G C71U reaches -0.2 or more?
false

Could you tell me if the measured yeast fitness (ln) of G6A C66U A69G A70G reaches -0.2 or more?
true

Could you tell me if the measured yeast fitness (ln) of G1A U2G G6U C27U A43C C46U A70G reaches -0.2 or more?
false

Could you tell me if the measured yeast fitness (ln) of G1A G6A C27U A69G A70U reaches -0.2 or more?
false

Could you tell me if the measured yeast fitness (ln) of U2G C27U A43C C66A A69G A70G reaches -0.2 or more?
false

Could you tell me if the measured yeast fitness (ln) of G1A G6U C27U A43C A69G A70G C71U reaches -0.2 or more?
false

Could you tell me if the measured yeast fitness (ln) of C27U C46U C66U A69G A70U C71U reaches -0.2 or more?
false

Could you tell me if the measured yeast fitness (ln) of G1A U2G G6A A69G A70G reaches -0.2 or more?
false

Could you tell me if the measured yeast fitness (ln) of U2G C27U A43C C66A A69G A70U reaches -0.2 or more?
false

Could you tell me if the measured yeast fitness (ln) of G1A U2C C27U A43C C46U A70U reaches -0.2 or more?
true

Could you tell me if the measured yeast fitness (ln) of G6A C27U C46U C66U A70G reaches -0.2 or more?
true

Could you tell me if the measured yeast fitness (ln) of U2C G6U C27U A43C C46U A69G C71U reaches -0.2 or more?
true

Could you tell me if the measured yeast fitness (ln) of G1A C66U A70G reaches -0.2 or more?
true

Could you tell me if the measured yeast fitness (ln) of G1A U2C G6U C27U C66A A70G C71U reaches -0.2 or more?
true

Could you tell me if the measured yeast fitness (ln) of U2G G6U C46U C66U A69G A70G reaches -0.2 or more?
true

Could you tell me if the measured yeast fitness (ln) of U2C C27U A43C C46U A70U C71U reaches -0.2 or more?
true

Could you tell me if the measured yeast fitness (ln) of G1A A43C C46U C66U C71U reaches -0.2 or more?
false

Could you tell me if the measured yeast fitness (ln) of G1A U2G G6U A43C C46U C66A A70G C71U reaches -0.2 or more?
true

Could you tell me if the measured yeast fitness (ln) of U2C C27U A43C C46U A69G A70G C71U reaches -0.2 or more?
true

Could you tell me if the measured yeast fitness (ln) of G1A U2C G6A C27U C46U C66U A70U C71U reaches -0.2 or more?
false

Could you tell me if the measured yeast fitness (ln) of G1A U2G G6U A43C C46U C66U A70G reaches -0.2 or more?
false

Could you tell me if the measured yeast fitness (ln) of G1A U2G G6U A43C C46U C66U C71U reaches -0.2 or more?
false

Could you tell me if the measured yeast fitness (ln) of G1A U2G G6U A43C C46U C66U reaches -0.2 or more?
false

Could you tell me if the measured yeast fitness (ln) of G1A U2C G6U C27U A43C C66A A70G C71U reaches -0.2 or more?
true

Could you tell me if the measured yeast fitness (ln) of G1A G6A C27U A43C A69G A70G C71U reaches -0.2 or more?
false

Could you tell me if the measured yeast fitness (ln) of G1A U2C A70G reaches -0.2 or more?
true

Could you tell me if the measured yeast fitness (ln) of G1A U2G C27U A43C C46U C66U A69G A70U C71U reaches -0.2 or more?
false

Could you tell me if the measured yeast fitness (ln) of G1A U2C G6A A69G A70G C71U reaches -0.2 or more?
true

Could you tell me if the measured yeast fitness (ln) of U2C G6A A70G reaches -0.2 or more?
true

Could you tell me if the measured yeast fitness (ln) of G1A C27U C46U A70G reaches -0.2 or more?
true

Could you tell me if the measured yeast fitness (ln) of U2C G6U C46U A69G A70G C71U reaches -0.2 or more?
false

Could you tell me if the measured yeast fitness (ln) of G1A U2C G6A C27U A43C A70U C71U reaches -0.2 or more?
true

Could you tell me if the measured yeast fitness (ln) of G1A C66A A70U reaches -0.2 or more?
true

Could you tell me if the measured yeast fitness (ln) of G1A U2C G6U C46U A70U C71U reaches -0.2 or more?
true

Could you tell me if the measured yeast fitness (ln) of U2G C27U A43C C46U A69G A70G C71U reaches -0.2 or more?
true

Could you tell me if the measured yeast fitness (ln) of G1A U2C G6U C66A C71U reaches -0.2 or more?
true

Could you tell me if the measured yeast fitness (ln) of C66A A70G reaches -0.2 or more?
true

Could you tell me if the measured yeast fitness (ln) of G1A G6U C27U C66A A70U reaches -0.2 or more?
false

Could you tell me if the measured yeast fitness (ln) of G1A U2C G6A C27U A70U reaches -0.2 or more?
true

Could you tell me if the measured yeast fitness (ln) of U2G G6A C27U C46U A69G A70U reaches -0.2 or more?
true

Could you tell me if the measured yeast fitness (ln) of U2C C46U C66A A69G A70G reaches -0.2 or more?
true

Could you tell me if the measured yeast fitness (ln) of A70G C71U reaches -0.2 or more?
true

Could you tell me if the measured yeast fitness (ln) of U2G G6U A43C A70U reaches -0.2 or more?
true

Could you tell me if the measured yeast fitness (ln) of G1A C27U A43C C46U C66A A70G reaches -0.2 or more?
false

Could you tell me if the measured yeast fitness (ln) of G1A A43C C46U A70U reaches -0.2 or more?
true

Could you tell me if the measured yeast fitness (ln) of U2G C27U A43C C46U C66A A70U reaches -0.2 or more?
true

Could you tell me if the measured yeast fitness (ln) of G1A U2C A43C C46U C71U reaches -0.2 or more?
true

Could you tell me if the measured yeast fitness (ln) of G1A U2G G6U C27U A43C A70U C71U reaches -0.2 or more?
false

Could you tell me if the measured yeast fitness (ln) of G1A G6U C27U C46U C71U reaches -0.2 or more?
false

Could you tell me if the measured yeast fitness (ln) of U2G G6U C27U C46U C66A A69G A70G reaches -0.2 or more?
false

Could you tell me if the measured yeast fitness (ln) of G1A G6U C27U A43C C46U C66A A70G reaches -0.2 or more?
false

Could you tell me if the measured yeast fitness (ln) of G1A C66A A69G A70G C71U reaches -0.2 or more?
true

Could you tell me if the measured yeast fitness (ln) of G1A U2C G6A C46U C66U C71U reaches -0.2 or more?
true

Could you tell me if the measured yeast fitness (ln) of U2G G6A C27U A43C C46U C66U A69G A70U reaches -0.2 or more?
false

Could you tell me if the measured yeast fitness (ln) of G1A U2C G6A C27U A43C C46U A69G A70G C71U reaches -0.2 or more?
true

Could you tell me if the measured yeast fitness (ln) of G6U A43C C66A A69G A70U reaches -0.2 or more?
false
